- assay_target: CBL-B (residues 36-427) (Homo sapiens, UniProt Q13191)
- Construct: Purified CBL-B (residues 36-427) and C-CBL (residues 46-435) proteins from baculovirus-infected insect cells; made in house; host or cells: baculovirus-infected insect cells
- method_description: Ligand Displacement Assay (LDA), HTRF competitive binding against BODIPY-labeled fluorescent tracer, CBL-B
- test_context: geometric mean of the number of tests, read-out: CBL-B Ki (nM) GMean
log10(Ki) values, listed per item
observed_property: log10(Ki) (log10 of the value in nM)

compound	log10(Ki)
CC(N[C@H]1CCOC1)c1nc(C(F)(F)F)cc2c(-c3cccc(C4(Cc5nncn5C)COC4)c3)n[nH]c12 (single isomer, unassigned) [Example C81]	0.81
C[C@@H](c1nc(C(F)(F)F)cc2c(-c3cccc(C4(Cc5nncn5C)COC4)c3)n[nH]c12)N1CCNC(=O)C1 (single isomer, unassigned)	0.76
Cn1cnnc1[C@@H](c1cccc(-c2n[nH]c3c(CN[C@H]4CCC[C@H]4O)nc(C(F)(F)F)cc23)c1)C1CCC1	1.47
C[C@H](NC1CC(F)(F)C1)c1nc(C(F)(F)F)cc2c(-c3cccc([C@H](c4nncn4C)C4CCC4)c3)n[nH]c12 (single isomer, unassigned)	0.95
CN1CC[C@@H](Oc2nc(C(F)(F)F)cc3c(-c4cccc([C@H](c5nncn5C)C5CCC5)c4)n[nH]c23)C1	0.96
CCNC(C)c1nc(C(F)(F)F)cc2c(-c3cccc([C@H](c4nncn4C)C4CCC4)c3)n[nH]c12 (single isomer, unassigned) [Example C90]	0.97
CN(C)Cc1nc(C(F)(F)F)cc2c(-c3cccc([C@H](c4nncn4C)C4CCC4)c3)n[nH]c12	1.51
CC(N[C@H]1CCC[C@@H]1O)c1nc(C(F)(F)F)cc2c(-c3cccc([C@H](c4nncn4C)C4CCCCC4)c3)n[nH]c12 (single isomer, unassigned) [Example C101]	0.40
Cn1cnnc1[C@@H](c1cccc(-c2n[nH]c3c(CN[C@H]4CCC[C@@H]4O)nc(C(F)(F)F)cc23)c1)C1CCC1	0.52
Cn1cnnc1CC1(c2cccc(-c3n[nH]c4ccc(Cl)cc34)c2)COC1	1.40
CC(=O)NC(C)c1nc(C(F)(F)F)cc2c(-c3cccc(C4(Cc5nncn5C)COC4)c3)n[nH]c12 (single isomer, unassigned) [Example M6]	1.29
CC(N[C@@H]1CCOC1)c1nc(C(F)(F)F)cc2c(-c3cccc(C4(Cc5nncn5C)COC4)c3)n[nH]c12 (single isomer, unassigned) [Example C85]	1.18
Cn1cnnc1[C@@H](c1cccc(-c2n[nH]c3c(CN4CCCCC4)nc(C(F)(F)F)cc23)c1)C1CCC1	1.61
CN1CC[C@H](N(C)c2nc(C(F)(F)F)cc3c(-c4cccc([C@H](c5nncn5C)C5CCC5)c4)n[nH]c23)C1	1.21
C[C@H](c1nc(C(F)(F)F)cc2c(-c3cccc(C4(Cc5nncn5C)COC4)c3)n[nH]c12)N(C)C (single isomer, unassigned)	1.38
CC(NCCO)c1nc(C(F)(F)F)cc2c(-c3cccc([C@H](c4nncn4C)C4CCC4)c3)n[nH]c12 (single isomer, unassigned) [Example C41]	0.51
CC(NC1CC2(COC2)C1)c1nc(C(F)(F)F)cc2c(-c3cccc([C@H](c4nncn4C)C4CCC4)c3)n[nH]c12 (single isomer, unassigned) [Example C98]	1.43
CC(CN)c1nc(C(F)(F)F)cc2c(-c3cccc(C4(Cc5nncn5C)COC4)c3)n[nH]c12 (single isomer, unassigned) [Example K6]	1.42
C[C@@H](N[C@@H]1CCC(F)(F)C1)c1nc(C(F)(F)F)cc2c(-c3cccc(C4(Cc5nncn5C)COC4)c3)n[nH]c12 (single isomer, unassigned)	0.34
CC(N[C@H](C)[C@H](C)O)c1nc(C(F)(F)F)cc2c(-c3cccc([C@H](c4nncn4C)C4CCC4)c3)n[nH]c12 (single isomer, unassigned) [Example C116]	1.26
CN[C@H](C)c1nc(C(F)(F)F)cc2c(-c3cccc(C4(Cc5nncn5C)COC4)c3)n[nH]c12 (single isomer, unassigned)	1.53
C[C@H](NC(=O)OC(C)(C)C)c1nc(C(F)(F)F)cc2c(-c3cccc(C4(Cc5nncn5C)COC4)c3)n[nH]c12	1.52
Cn1cnnc1[C@@H](c1cccc(-c2n[nH]c3c(CN4CCC4)nc(C(F)(F)F)cc23)c1)C1CCC1	1.44
Cn1cnnc1CC1(c2cccc(-c3n[nH]c4cc(F)c(F)cc34)c2)COC1	1.77
